For each entry below, report its EC50 value.
Biological target: human CB1 receptors (Homo sapiens, UniProt P21554)
Sequence (P21554 whole entry): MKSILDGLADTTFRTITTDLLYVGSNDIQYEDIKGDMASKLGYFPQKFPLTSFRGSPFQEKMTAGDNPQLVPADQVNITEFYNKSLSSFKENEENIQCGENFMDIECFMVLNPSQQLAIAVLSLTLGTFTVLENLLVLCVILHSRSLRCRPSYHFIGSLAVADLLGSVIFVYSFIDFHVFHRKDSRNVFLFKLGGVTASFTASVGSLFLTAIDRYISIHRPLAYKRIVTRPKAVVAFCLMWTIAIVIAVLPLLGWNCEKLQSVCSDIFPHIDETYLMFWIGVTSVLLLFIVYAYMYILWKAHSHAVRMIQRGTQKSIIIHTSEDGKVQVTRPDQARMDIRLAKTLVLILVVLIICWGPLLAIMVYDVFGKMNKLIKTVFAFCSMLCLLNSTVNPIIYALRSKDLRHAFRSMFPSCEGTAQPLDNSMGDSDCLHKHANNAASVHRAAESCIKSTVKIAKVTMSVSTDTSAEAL
Assay: functional cAMP assay, CHO cells expressing human CB1

1. Cc1nc([C@](C)(CC2CC2)NC(=O)c2ccc(C3CC3)c(-c3ccc(F)nc3)c2)no1; > 10 µM
2. CNC(=O)[C@@H](NC(=O)c1ccc(C2CC2)c(-c2ccc(F)nc2)c1)C(C)(C)C; 0.388 µM
3. Cc1nc([C@](C)(CC2CC2)NC(=O)c2ccc(C3CC3)c(OC(C)C)c2)no1 (single isomer, unassigned); > 10 µM
4. CC(C)(NC(=O)c1ccc(C2CC2)c(OCC2CC2)c1)c1nccs1; 0.539 µM
5. Cn1nccc1-c1cc(C(=O)N2CC(F)(F)C[C@H]2C(N)=O)ccc1C1CC1; > 10 µM
6. C[C@](CC(N)=O)(NC(=O)c1ccc(C2CC2)c(-c2ccc(F)nc2)c1)C1CC1; > 10 µM

Go through the list and state EC50 for each entry.
1. Cc1nc([C@@](C)(CC2CC2)NC(=O)c2ccc(C3CC3)c(OCCF)c2)no1
2. CC(C)(C)c1nc(-c2ccc(C3CC3)c(OCCF)c2)no1
3. NC(=O)[C@@H]1CC(F)(F)CN1C(=O)c1ccc(C2CC2)c(OCC(F)(F)F)c1
4. Cc1nc([C@](C)(CS(C)(=O)=O)NC(=O)c2ccc(C3CC3)c(OCC3CC3)c2)no1
5. CC(C)(C)c1noc(-c2ccc(C3CC3)c(OCC3CC3)c2)n1

1. > 10 µM
2. > 10 µM
3. > 10 µM
4. > 10 µM
5. > 10 µM

Respectfully, I request EC50 for each entry included below.
1. CCC(CC)(NC(=O)c1ccc(C2CC2)c(OCC2CC2)c1)C(=O)N1CC(F)(F)C1
2. Cc1nc([C@@](C)(CS(C)(=O)=O)NC(=O)c2ccc(C3CC3)c(OCC(F)(F)F)c2)no1
3. CNC(=O)[C@H](CC(C)C)NC(=O)c1ccc(C2CC2)c(OCC2CC2)c1
4. C[C@@](CC(N)=O)(NC(=O)c1ccc(C2CC2)c(OCC(F)(F)F)c1)C1CC1 (single isomer, unassigned) [Example 35]

> 10 µM
> 10 µM
> 10 µM
> 10 µM

So what does the record say about EC50 for NC(=O)C1CC2(CC2)CN1C(=O)c1ccc(C2CC2)c(OCC2CC2)c1 (stereo not shown) ? > 10 µM

* * *

For each of the compounds below, state its EC50.
Biological target: human CB2 receptors (Homo sapiens, UniProt P34972)
Construct: expressed in transfected cells; host or cells: CHO cells
Sequence (P34972 whole entry): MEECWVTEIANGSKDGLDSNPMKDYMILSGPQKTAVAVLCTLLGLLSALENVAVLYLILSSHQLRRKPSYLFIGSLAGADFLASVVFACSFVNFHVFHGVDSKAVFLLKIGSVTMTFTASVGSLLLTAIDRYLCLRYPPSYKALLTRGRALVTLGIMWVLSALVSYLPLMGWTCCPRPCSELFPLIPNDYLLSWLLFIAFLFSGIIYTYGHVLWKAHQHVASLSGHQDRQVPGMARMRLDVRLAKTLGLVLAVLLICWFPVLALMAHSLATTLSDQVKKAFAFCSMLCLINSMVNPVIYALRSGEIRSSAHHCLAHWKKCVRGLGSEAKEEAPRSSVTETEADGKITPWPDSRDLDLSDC
Test: functional cAMP assay, CHO cells expressing human CB2
Format: cell-based
Numbers only, in nM.

1. CNC(=O)[C@@H](NC(=O)c1ccc(C2CC2)c(N2CCC(F)(F)C2)c1)C(C)(C)C; 0.48
2. C[C@](CC(N)=O)(NC(=O)c1ccc(C2CC2)c(OCCF)c1)C1CC1; 7.42
3. C[C@](CC(N)=O)(NC(=O)c1ccc(C2CC2)c(OCC(F)(F)F)c1)C1CC1; 33.9
4. CNC(=O)[C@@H](NC(=O)c1ccc(C2CC2)c(OC(C)C)c1)C(C)(C)C; 5.33
5. Cc1nc([C@@](C)(CC2CC2)NC(=O)c2ccc(C3CC3)c(OCC(F)(F)F)c2)no1; 40.3
6. CNC(=O)[C@@H](NC(=O)c1ccc(C2CC2)c(OCCF)c1)C(C)(C)C; 11.5
7. NC(=O)[C@@H]1CC(F)(F)CN1C(=O)c1ccc(C2CC2)c(N2CCC(F)(F)C2)c1; 18.1
8. NC(=O)CC1(NC(=O)c2ccc(C3CC3)c(OCC3CC3)c2)COC1; 34.1

Please state EC50 for every compound in the list that follows.
1. Cc1nc(C(C)(C)NC(=O)c2ccc(N3CC(F)(F)C3)c(OCC3CC3)c2)no1
2. Cc1nc([C@@](C)(CS(C)(=O)=O)NC(=O)c2ccc(C3CC3)c(OCC(F)(F)F)c2)no1
3. NC(=O)CC1(NC(=O)c2ccc(C3CC3)c(OCC(F)(F)F)c2)CS(=O)(=O)C1
4. CCC(CC)(NC(=O)c1ccc(C2CC2)c(OCC2CC2)c1)C(=O)N1CC(F)(F)C1
5. CC(C)(C)c1noc(-c2ccc(C3CC3)c(OCC3CC3)c2)n1
6. Cc1nc([C@](C)(CC2CC2)NC(=O)c2ccc(C3CC3)c(OCC(F)(F)F)c2)no1

1. 32.9
2. 149
3. 98
4. 7.56
5. 23.3
6. 36.3

Below is a list of compounds. For each, state its recorded EC50.
1. C[C@@](CC(N)=O)(NC(=O)c1ccc(C2CC2)c(-c2ccc(F)nc2)c1)C1CC1
2. CC(C)(NC(=O)c1ccc(C2CC2)c(OCC2CC2)c1)c1nccs1
3. C[C@@](CC(N)=O)(NC(=O)c1ccc(C2CC2)c(N2CCC(F)(F)C2)c1)C1CC1

[184, 26, 25.9]
